- assay comment: Solubility of HPC in benzyl benzoate/castor oil mixtures
- Format: physicochemical
- experimental parameters: benzyl benzoate/castor oil mixture, 15 °C, oil or lipid, thermodynamic from solid, 15° C., 63.33 wt % BB relative to castor oil; read-out: mg HPC/mL solution (solubility)

compound | value units | solubility
CCCCCC(=O)O[C@]1(C(C)=O)CC[C@H]2[C@@H]3CCC4=CC(=O)CC[C@]4(C)[C@H]3CC[C@@]21C [17-HPC, 17-alpha-hydroxyprogesterone caproate] | mg/mL | 254

====

- assay comment: Randomized bioavailability study of 17-HPC, SC injection in triceps area (1.1 or 1.2 mL) vs IM injection (1.0 mL)
- Format: in vivo, human
- experimental parameters: female, human, plasma; SC 1.2 mL (300 mg) triceps area; read-out: Tmax, median
- Description: A randomized study is conducted to compare the bioavailability and injection site pain when 17-HPC, 250 mg/mL, is administered as a single 1.0 mL IM injection (250 mg) in the gluteus maximus or a 1.1 (275 mg) or 1.2 mL (300 mg) SQ injection in the triceps area of healthy post-menopausal women. Patients are randomized into two groups by route of administration. Group A receives a 1.0 mL IM injection of 17-HPC into the upper outer quadrant of the gluteus maximus. […]
assay readout: Tmax

compound | endpoint result
CCCCCC(=O)O[C@]1(C(C)=O)CC[C@H]2[C@@H]3CCC4=CC(=O)CC[C@]4(C)[C@H]3CC[C@@]21C [17-HPC, 17-alpha-hydroxyprogesterone caproate] | 48 h
